- METHOD: Half life in human at 10 ug, po
- Type: ADME, organism-based
- CONDITION LABEL: in vivo
Attribute: half-life
Please answer using the number first and the unit second.

half-life for Cc1cc(C)c2c(c1)C=C(C(=O)O)[C@@H](C(F)(F)F)O2 is 57 h

# compound CCc1cc(OC(F)(F)F)cc2c1O[C@H](C(F)(F)F)C(C(=O)O)=C2 ; its half-life = 13 h

# ---- query compound ----
Value of measured half-life for the entry Cc1cc2c(c(C)c1Cl)C=C(C(=O)O)[C@@H](C(F)(F)F)O2 : 11 h

----------
Known Ratio IC50 of a selection of molecules
- Organism: Homo sapiens
- METHOD: Selectivity ratio of IC50 for human COX1 to IC50 for human COX2
In your answer, state the number alone without any accompanying words.

The reported Ratio IC50 of the molecule C#Cc1ccc2c(c1)C=C(C(=O)O)C(C(F)(F)F)O2 (stereo unspecified) was 1290

Ratio IC50 measured on CCCc1cc(OC(F)(F)F)cc2c1OC(C(F)(F)F)C(C(=O)O)=C2 (stereo unspecified) = 163

----------
- Species on record: Homo sapiens
- METHOD: Selectivity ratio of IC50 for human COX1 to IC50 for human COX2
Hi! Just check whether Ratio IC50 is below 100. Below gives Satisfied, equal or above gives Not satisfied.

# count of solved cases: 4
Lookup: Does the reported Ratio IC50 of the following molecule sit strictly below 100? Cc1ccc2c(c1)C=C(C(=O)O)C(C(F)(F)F)O2 (configuration not stated)
Found: Not satisfied

Lookup: For this molecule, is Ratio IC50 lower than 100? Cc1cc(Cl)c(C)c2c1OC(C(F)(F)F)C(C(=O)O)=C2 (configuration not stated)
Found: Satisfied

Lookup: Below 100 on Ratio IC50? Entry C#Cc1cc(Cl)c2c(c1)C=C(C(=O)O)C(C(F)(F)F)O2 (configuration not stated)
Found: Satisfied

Lookup: hey, is Ratio IC50 for COc1cc(OC(F)(F)F)cc2c1OC(C(F)(F)F)C(C(=O)O)=C2 (configuration not stated) lower than 100 or not?
Found: Satisfied

Next:
Lookup: Please indicate whether the reported Ratio IC50 of COc1ccc2c(c1)C=C(C(=O)O)C(C(F)(F)F)O2 (configuration not stated) is strictly below 100.
Found: Satisfied

Lookup: Would you kindly verify if Ratio IC50 of CCc1ccc2c(c1)C=C(C(=O)O)C(C(F)(F)F)O2 (configuration not stated) is strictly less than 100?
Found: Satisfied

Lookup: Dear colleague, could you confirm whether Ratio IC50 of COc1cc(C)cc2c1OC(C(F)(F)F)C(C(=O)O)=C2 (configuration not stated) falls below 100? Thanks.
Found: Satisfied

Lookup: State whether 100 exceeds Ratio IC50 recorded for Cc1cc(Cl)c2c(c1)C=C(C(=O)O)C(C(F)(F)F)O2 (configuration not stated) .
Found: Satisfied

Lookup: Please state whether Ratio IC50 is below 100 for Cc1cc2c(c(C)c1Cl)C=C(C(=O)O)C(C(F)(F)F)O2 (configuration not stated)
Found: Not satisfied

Lookup: Is Ratio IC50 strictly under 100 for the entry COc1cc(Cl)c2c(c1)C=C(C(=O)O)C(C(F)(F)F)O2 (configuration not stated) ?
Found: Not satisfied

Lookup: Is Ratio IC50 of Cc1cc(C)c2c(c1)C=C(C(=O)O)C(C(F)(F)F)O2 (configuration not stated) strictly below 100?
Found: Not satisfied

Lookup: Identify whether the molecule O=Cc1ccc2c(c1)C=C(C(=O)O)C(C(F)(F)F)O2 (configuration not stated) records Ratio IC50 below 100.
Found: Not satisfied

----------
- TEST SYSTEM: Prostaglandin G/H synthase 1 (Homo sapiens)
- Sequence (P23219 whole entry): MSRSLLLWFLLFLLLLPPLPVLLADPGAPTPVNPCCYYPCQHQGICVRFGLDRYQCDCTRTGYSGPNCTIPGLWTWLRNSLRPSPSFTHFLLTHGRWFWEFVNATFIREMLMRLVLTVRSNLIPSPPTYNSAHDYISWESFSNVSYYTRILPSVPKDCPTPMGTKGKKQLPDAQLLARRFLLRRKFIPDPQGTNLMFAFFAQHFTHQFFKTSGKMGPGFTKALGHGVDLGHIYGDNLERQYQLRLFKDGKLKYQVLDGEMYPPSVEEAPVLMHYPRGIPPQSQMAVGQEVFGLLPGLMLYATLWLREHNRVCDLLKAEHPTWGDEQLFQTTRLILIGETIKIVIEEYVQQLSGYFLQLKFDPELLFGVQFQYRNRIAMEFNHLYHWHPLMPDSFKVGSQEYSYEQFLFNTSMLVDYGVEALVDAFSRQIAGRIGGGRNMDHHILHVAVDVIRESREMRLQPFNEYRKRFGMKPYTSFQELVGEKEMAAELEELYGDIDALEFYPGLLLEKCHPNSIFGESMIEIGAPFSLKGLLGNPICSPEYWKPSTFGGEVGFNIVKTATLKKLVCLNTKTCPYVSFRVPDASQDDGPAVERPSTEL
Rule for this label: Fulfilled means IC50 is less than 2 µM; Not fulfilled means IC50 is at least 2 µM.

Answered examples (10):
Lookup: Consider CCCc1cc(OC(F)(F)F)cc2c1OC(C(F)(F)F)C(C(=O)O)=C2 (stereo unspecified) . Does its IC50 lie strictly below 2 µM?
Found: Not fulfilled

Lookup: Confirm or reject: IC50 of Cc1cc2c(c(C)c1Cl)C=C(C(=O)O)[C@H](C(F)(F)F)O2 lies strictly below 2 µM
Found: Not fulfilled

Lookup: Record Cc1cc2c(c(C)c1Cl)C=C(C(=O)O)[C@@H](C(F)(F)F)O2 : is its IC50 strictly below 2 µM?
Found: Not fulfilled

Lookup: Is 2 µM strictly greater than the compound's reported IC50? compound: C#Cc1ccc2c(c1)C=C(C(=O)O)C(C(F)(F)F)O2 (stereo unspecified)
Found: Not fulfilled

Lookup: Identify whether the compound CCCc1cc(OC(F)(F)F)cc2c1O[C@@H](C(F)(F)F)C(C(=O)O)=C2 records IC50 below 2 µM.
Found: Not fulfilled

Lookup: Consider CCc1cc(OC(F)(F)F)cc2c1OC(C(F)(F)F)C(C(=O)O)=C2 (stereo unspecified) . Does its IC50 lie strictly below 2 µM?
Found: Fulfilled

Lookup: State whether 2 µM exceeds IC50 recorded for Cc1cc(C)c2c(c1)C=C(C(=O)O)C(C(F)(F)F)O2 (stereo unspecified) .
Found: Not fulfilled

Lookup: Consider CCc1ccc2c(c1)C=C(C(=O)O)C(C(F)(F)F)O2 (stereo unspecified) . Does its IC50 lie strictly below 2 µM?
Found: Fulfilled

Lookup: Answer whether the compound Cc1cc2c(c(C)c1Cl)C=C(C(=O)O)C(C(F)(F)F)O2 (stereo unspecified) has IC50 strictly less than 2 µM
Found: Not fulfilled

Lookup: I'd appreciate it if you could check whether C#Cc1cc(Cl)c2c(c1)C=C(C(=O)O)C(C(F)(F)F)O2 (stereo unspecified) has IC50 smaller than 2 µM.
Found: Fulfilled

API: the following record is the query input.
Lookup: Decide: IC50 of Cc1cc(Cl)cc2c1OC(C(F)(F)F)C(C(=O)O)=C2 (stereo unspecified) strictly below 2 µM?
Found: Fulfilled

----------
Catalogue of compounds with associated half-life
- METHOD: Half life in dog
- Assay type: ADME, organism-based, Canis lupus familiaris
- CONDITION LABEL: in vivo
Output spec: scalar in h, unitless text.

half-life recorded for this compound, Cc1cc(C)c2c(c1)C=C(C(=O)O)[C@@H](C(F)(F)F)O2 , is 19

Kindly note the recorded half-life for CCc1cc(OC(F)(F)F)cc2c1O[C@H](C(F)(F)F)C(C(=O)O)=C2 , which is 7.7

Attention now shifts to the item below.
# half-life (compound: Cc1cc2c(c(C)c1Cl)C=C(C(=O)O)[C@@H](C(F)(F)F)O2 ) is 23

----------
- System: Rattus norvegicus
- METHOD: Antiinflammatory activity in rat air pouch model assessed as inhibition of carrageenan-induced PGE2 production administered 1 hr before carrageenan challenge
- Format: functional
inhibition (INH) values by entry
Express it in %; write the number only.

Lookup result for Cc1cc(C)c2c(c1)C=C(C(=O)O)[C@@H](C(F)(F)F)O2 ; measured inhibition (INH): 80

Entry C#Cc1ccc2c(c1)C=C(C(=O)O)C(C(F)(F)F)O2 (stereo unspecified) , inhibition (INH) reported as 60

Lookup result for Cc1ccc2c(c1)C=C(C(=O)O)C(C(F)(F)F)O2 (stereo unspecified) ; measured inhibition (INH): 13

----------
- METHOD: Half life in rat
- Assay type: ADME, organism-based
- CONDITION LABEL: in vivo
Entries annotated with measured half-life
The number alone won't do; follow it with the unit.

Lab book: half-life of Cc1cc(C)c2c(c1)C=C(C(=O)O)[C@@H](C(F)(F)F)O2 noted as 8.7 h

// field: half-life; key: CCc1cc(OC(F)(F)F)cc2c1O[C@H](C(F)(F)F)C(C(=O)O)=C2 ; value = 2 h

Please find the next molecule below.
// Cc1cc2c(c(C)c1Cl)C=C(C(=O)O)[C@@H](C(F)(F)F)O2 : half-life value = 4.7 h

----------
- METHOD: Half life in cynomolgus monkey
- Type: ADME, organism-based, Macaca fascicularis
- CONDITION LABEL: in vivo
Measured half-life accompanies every entry in the list below.
Your answer should be a plain number; it is taken to be in h.

Recorded result, Cc1cc2c(c(C)c1Cl)C=C(C(=O)O)[C@@H](C(F)(F)F)O2 , half-life: 5.4

Recorded half-life (compound CCc1cc(OC(F)(F)F)cc2c1O[C@H](C(F)(F)F)C(C(=O)O)=C2 ): 12

Value of measured half-life for the entry Cc1cc(C)c2c(c1)C=C(C(=O)O)[C@@H](C(F)(F)F)O2 : 28

----------
- Species: Homo sapiens
- METHOD: Selectivity ratio of IC50 for human COX1 to IC50 for human COX2
Recorded Ratio IC50 values for a group of compounds are listed next.

# count of solved cases: 3
Record N#Cc1ccc2c(c1)C=C(C(=O)O)C(C(F)(F)F)O2 (centres undefined) . Reported Ratio IC50: 1040

The compound listed as CCc1cc(C)c2c(c1)C=C(C(=O)O)C(C(F)(F)F)O2 (centres undefined) shows Ratio IC50 equal to 0.5

Ratio IC50 measured on O=C(O)C1=Cc2cc(Cl)ccc2OC1C(F)(F)F (centres undefined) = 91

Next:
What the record says about O=C(O)C1=Cc2cc(OC(F)(F)F)ccc2OC1C(F)(F)F (centres undefined) [OCAROCOXIB] : Ratio IC50 is 773

Reference source for all entries: ChEMBL document CHEMBL1287644
